# TESTED_SYSTEM: T1, recombinant human CSF-1R (form not stated) (human, UniProt P07333 20-512, limits assumed)
# T1 construct: for the ELISA no species is stated; also called recombinant CSF-1R; recombinant CSF-1R protein
# T1 sequence (P07333 20-512 limits assumed): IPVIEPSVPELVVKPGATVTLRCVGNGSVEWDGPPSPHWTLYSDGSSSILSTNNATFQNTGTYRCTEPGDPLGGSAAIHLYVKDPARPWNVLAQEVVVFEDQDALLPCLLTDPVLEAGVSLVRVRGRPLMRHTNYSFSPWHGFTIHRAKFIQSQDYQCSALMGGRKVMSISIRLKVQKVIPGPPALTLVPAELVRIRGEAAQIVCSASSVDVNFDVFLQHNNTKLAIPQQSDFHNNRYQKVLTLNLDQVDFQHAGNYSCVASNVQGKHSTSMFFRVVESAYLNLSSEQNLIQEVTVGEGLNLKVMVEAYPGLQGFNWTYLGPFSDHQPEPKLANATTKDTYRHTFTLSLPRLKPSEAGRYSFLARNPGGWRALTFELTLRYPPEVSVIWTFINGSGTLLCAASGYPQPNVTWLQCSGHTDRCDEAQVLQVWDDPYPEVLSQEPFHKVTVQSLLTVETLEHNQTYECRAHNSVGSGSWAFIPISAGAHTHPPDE
# RUN_DESCRIPTION: BIAcore, experiment 1 of 3
Kindly state kon for each of the entries shown.
Form entry: enter the amount, then its unit.

# return recorded kon for entry 969gH1gL1 (antibody, human IgG4 S228P, kappa, name in Kabat numbering, V domains shown, Humanised IgG4 (S241P)/kappa; positions are Kabat; also called Ab969.g1) VH: EVTLKESGPALVKPTQTLTLTCTFSGFSLTTYGMGVGWIRQPPGKALEWLANIWWDDDKYYNPSLKNRLTISKDTSKNQAVLTMTNMDPVDTATYYCARIGPIKYPTAPYRYFDFWGQGTMVTVSS VL: DIQMTQSPSSLSASVGDRVTITCLASEDIYDNLAWYQKKPGKAPKLLIYYASSLQDGVPSRFSGSGSGTDYTLTISSLQPEDFATYFCLQDSEYPWTFGGGTKVEIKR
2.65e+06 M⁻¹ s⁻¹

# return recorded kon for entry 969gH2gL8 (antibody, human IgG4 S228P, kappa, name in Kabat numbering, V domains shown, Humanised IgG4 (S241P)/kappa, no donor residues; position is Kabat; also called Ab969.g4) VH: EVTLKESGPALVKPTQTLTLTCTFSGFSLTTYGMGVGWIRQPPGKALEWLANIWWDDDKYYNPSLKNRLTISKDTSKNQVVLTMTNMDPVDTATYYCARIGPIKYPTAPYRYFDFWGQGTMVTVSS VL: DIQMTQSPSSLSASVGDRVTITCLASEDIYDNLAWYQQKPGKAPKLLIYYASSLQDGVPSRFSGSGSGTDFTLTISSLQPEDFATYYCLQDSEYPWTFGGGTKVEIKR
1.99e+06 M⁻¹ s⁻¹

# return recorded kon for entry 969gH2gL1 (antibody, human IgG4 S228P, kappa, name in Kabat numbering, V domains shown, Humanised IgG4 (S241P)/kappa; positions are Kabat; also called Ab969.g6) VH: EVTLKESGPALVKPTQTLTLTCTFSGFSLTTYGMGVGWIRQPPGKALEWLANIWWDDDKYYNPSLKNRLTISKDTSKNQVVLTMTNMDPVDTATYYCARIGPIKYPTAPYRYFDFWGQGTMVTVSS VL: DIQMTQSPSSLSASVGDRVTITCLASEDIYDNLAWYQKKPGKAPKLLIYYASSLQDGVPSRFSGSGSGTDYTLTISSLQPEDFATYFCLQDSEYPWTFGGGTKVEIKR
2.43e+06 M⁻¹ s⁻¹

# return recorded kon for entry 969gH2gL4 (antibody, human IgG4 S228P, kappa, name in Kabat numbering, V domains shown, Humanised IgG4 (S241P)/kappa; positions are Kabat; also called Ab969.g7) VH: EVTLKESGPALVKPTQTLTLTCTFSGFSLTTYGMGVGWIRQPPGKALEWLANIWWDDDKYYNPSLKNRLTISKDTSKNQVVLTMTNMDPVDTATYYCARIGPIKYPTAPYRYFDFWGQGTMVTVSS VL: DIQMTQSPSSLSASVGDRVTITCLASEDIYDNLAWYQKKPGKAPKLLIYYASSLQDGVPSRFSGSGSGTDYTLTISSLQPEDFATYYCLQDSEYPWTFGGGTKVEIKR
2.57e+06 M⁻¹ s⁻¹

# return recorded kon for entry chimeric antibody 969 (rat variable regions, human gamma-4 heavy chain constant region and human kappa chain constant region) (antibody, human IgG4, V domains shown, Alexa-488 label in the cell-based affinity assay; not carried by the letters., Full-length human IgG4 (S241P)/kappa chimeric; also called Ab969) VH: QVTLKESGPGILQPSQTLSLTCTFSGFSLTTYGMGVGWIRQPSGKGLEWLANIWWDDDKYYNPSLKNRLTISKDTSNNQAFLKLTNVHTSDSATYYCARIGPIKYPTAPYRYFDFWGPGTMVTVSS VL: DIQMTQSPASLSASLGETVSIECLASEDIYDNLAWYQKKPGKSPHLLIYYASSLQDGVPSRFSGSGSGTQYSLKINSLESEDAATYFCLQDSEYPWTFGGGTKLELKR
2.83e+06 M⁻¹ s⁻¹

Each recorded value in this set is attributed to patent US20180162947A1.
